# STUDY TARGET: OsWOX13 (Oryza sativa, UniProt Q5QMM3 1-267)
# Sequence: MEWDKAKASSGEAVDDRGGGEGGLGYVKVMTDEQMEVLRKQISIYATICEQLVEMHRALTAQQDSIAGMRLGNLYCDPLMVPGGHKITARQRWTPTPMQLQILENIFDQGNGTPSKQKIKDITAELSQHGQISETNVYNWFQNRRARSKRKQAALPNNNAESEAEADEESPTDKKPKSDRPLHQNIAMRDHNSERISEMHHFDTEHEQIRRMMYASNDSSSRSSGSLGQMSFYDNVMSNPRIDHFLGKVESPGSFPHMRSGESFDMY
# TEST: protein-binding microarray (RPBM); PBS, 2% BSA, 51.3 ng/ul salmon testes DNA, 50 uM zinc acetate, 200 nM TF, 25 C, 1 h; high values mean tight binding
# ASSAY CONTEXT: protein: recombinant; tags: N-terminal polyhistidine and DsRed monomer fusion (pET32a); label: CyDye5-dUTP incorporated in the synthesized complementary strand; 3' TTTTT single-stranded linker to array surface; dsDNA, one strand shown
Whole data set: some 35,000 sequences, median “fluorescence intensity (a.u.)” near 10,000, cut for the highest 2% near 52,000. This is one part of a sample in which the highest values are shown more often than they occur.
Listed next: entries and their corresponding binding signal.

Known binding signal results, listed for orientation:
TCCAGTCCAATCAGCCCACCATAATTTGGGCCGGAATAAGCGGAGTCACCTAGTGCAG: 17600 fluorescence intensity (a.u.)
CTAAAATTACATATGTAATTTAGGCACTTACATATGTAATCGGAGTCACCTAGTGCAG: 19500 fluorescence intensity (a.u.)

Measured on OsWOX13 (Oryza sativa, UniProt Q5QMM3 1-267), AAGTAATTTAGTCAACTCTAAAAGTAACTATGTGTGTGTGCGGAGTCACCTAGTGCAG has a documented binding signal of 17300 fluorescence intensity (a.u.)

Measured on OsWOX13 (Oryza sativa, UniProt Q5QMM3 1-267), GCTAATTAAGTCCATTGCACATAGATCGATATGTGTACACCGGAGTCACCTAGTGCAG has a documented binding signal of 27700 fluorescence intensity (a.u.)

Measured on OsWOX13 (Oryza sativa, UniProt Q5QMM3 1-267), TGTTTGCGATTGATTTGTACTACACAGTGGGTGCTTCTCCCGGAGTCACCTAGTGCAG has a documented binding signal of 35300 fluorescence intensity (a.u.)

Measured on OsWOX13 (Oryza sativa, UniProt Q5QMM3 1-267), GATTATGATTTGGAGAAAATTGCATCCATAAAACATTAATCGGAGTCACCTAGTGCAG has a documented binding signal of 8000 fluorescence intensity (a.u.)
